All values here come from patent US20150368338A1.

We begin with a simple list: items and their reported Kd.
- tested_on: T1, IFN-α4a (human, UniProt P05014 24-189)
- T1 construct: Recombinant, HEK293; also called IFN-αM1
- experiment_summary: ProteOn SPR, cell supernatant;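 note: each binding measurement used just a single antigen concentration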
State just the number; it will be interpreted in nM.

binder="IFWM3401 (antibody, IgG1, V domains shown, mAb; IgG1/kappa said of the parent and of selected mAbs; also called IFWB3136) VH: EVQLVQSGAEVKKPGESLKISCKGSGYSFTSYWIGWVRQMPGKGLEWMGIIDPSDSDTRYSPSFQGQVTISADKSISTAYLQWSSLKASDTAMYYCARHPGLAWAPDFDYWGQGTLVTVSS VL: DIQMTQSPSSLSASVGDRVTITCRASQSITNHLNWYQQKPGKAPKLLIYFASSLQSGVPSRFSGSGSGTDFTLTISSLQPEDFATYYCQQAHNFPLTFGQGTKVEIK" assay_result=0.195
binder="IFWM3394 (antibody, IgG1, V domains shown, mAb; IgG1/kappa said of the parent and of selected mAbs; also called IFWB3129) VH: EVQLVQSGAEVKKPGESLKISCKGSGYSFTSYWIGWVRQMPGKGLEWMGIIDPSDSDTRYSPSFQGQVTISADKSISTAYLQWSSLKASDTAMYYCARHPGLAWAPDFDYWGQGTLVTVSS VL: DIQMTQSPSSLSASVGDRVTITCRASQSINEFLNWYQQKPGKAPKLLIYFASSLQSGVPSRFSGSGSGTDFTLTISSLQPEDFATYYCQQSYSTPLTFGQGTKVEIK" assay_result=0.105

# input Retrieve Kd measured for IFWM3380 (antibody, IgG1, V domains shown, mAb; IgG1/kappa said of the parent and of selected mAbs; also called IFWB3115) VH: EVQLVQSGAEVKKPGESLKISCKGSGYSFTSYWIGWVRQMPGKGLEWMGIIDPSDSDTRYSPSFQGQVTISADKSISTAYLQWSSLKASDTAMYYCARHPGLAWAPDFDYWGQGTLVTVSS VL: DIQMTQSPSSLSASVGDRVTITCRASQSINRFLNWYQQKPGKAPKLLIYAASSLQSGVPSRFSGSGSGTDFTLTISSLQPEDFATYYCQQAIDLPFTFGQGTKVEIK and print it.
# output 0.088
